- ASSAY DETAILS: Fluorescence response of fluorescent-FABP probes to fatty acid binding
- Type: biochemical
- Description: Principles and exemplary methods for constructing probes as described and defined herein and methods for determining FFA levels are described in detail below. […] So long as FA can bind, however, the derivatized molecule can still function as a FFA probe and so long as the probe's dynamic range is sufficient (as it is for ADIFAB, IANBDE and IANBDA) then FFA levels over a wide range, including those that are physiologic, can be measured. […]
MEASURED PROPERTY: responsiveness of the probe to FA binding, in words

MOLECULE: Native A-FABP labeled with NBD: Native A-FABP labeled with the N-[7-(4-nitrobenzo-2-oxa-1,3-diazol) (NBD) moieties (conjugate, UniProt P15090 2-132, looked up, NBD label, Native A-FABP labeled with the N-[7-(4-nitrobenzo-2-oxa-1,3-diazol) (NBD) moieties) Fatty acid-binding protein, …: CDAFVGTWKLVSSENFDDYMKEVGVGFATRKVAGMAKPNMIISVNGDVITIKSESTFKNTEISFILGQEFDEVTADDRKVKSTITLDGGVLVHVQKWDGKSTTIKRKREDDKLVVECVMKGVTSTRVYERA
RESULT: only poorly responsive
--
MOLECULE: Native A-FABP labeled with acrylodan: Native A-FABP which contains two cysteines, was labeled with acrylodan (conjugate, UniProt P15090 2-132, looked up, acrylodan label) Fatty acid-binding protein, …: CDAFVGTWKLVSSENFDDYMKEVGVGFATRKVAGMAKPNMIISVNGDVITIKSESTFKNTEISFILGQEFDEVTADDRKVKSTITLDGGVLVHVQKWDGKSTTIKRKREDDKLVVECVMKGVTSTRVYERA
RESULT: only poorly responsive
